tested on: Trichomonas vaginalis; experiment: Antiprotozoal activity against Trichomonas vaginalis CMP; format: functional, organism-based
Measurement Kind: IC50

Read the entry c1ccc(CNc2ccc3nccnc3c2)cc1 and write its reported IC50.
264 µM

* * *

MAC values for the compounds below.
tested on: Trypanosoma brucei brucei; assay: Antiprotozoal activity against Trypanosoma brucei brucei GVR35; assay type: functional

{"Compound": "CCc1ccc(OCc2ccccc2NC(=O)c2ccc3nc(C)c(C)nc3c2)cc1", "System": "Trypanosoma brucei brucei", "Observed Value": ">300 µM"}

Read the entry CCCCCCCCCCCCCCCC(=O)Nc1ccc2nccnc2c1Br and write its reported MAC.
>300 µM

Read the entry COc1cc2oc3ccccc3c2cc1NC(=O)c1ccc2nc(-c3ccccc3)c(-c3ccccc3)nc2c1 and write its reported MAC.
>300 µM

Read the entry O=C(Nc1ccc2nccnc2c1)c1ccc(Br)o1 and write its reported MAC.
>300 µM

Read the entry c1ccc2c(CNc3ccc4nccnc4c3)ccnc2c1 and write its reported MAC.
>300 µM

Read the entry CCn1c2ccccc2c2cc(NC(=O)c3ccc4nc(-c5ccccc5)c(-c5ccccc5)nc4c3)ccc21 and write its reported MAC.
>300 µM

* * *

test system: Trichomonas vaginalis; assay: Antiprotozoal activity against Trichomonas vaginalis CMP; assay type: functional, organism-based
pIC50: −log10 of the molar value.
pIC50 values for the compounds below.

{"Compound": "c1ccc2c(CNc3ccc4nccnc4c3)ccnc2c1", "Observed Value": "< 3.52"}

Read the entry CCCCCCCCCCCCC(=O)Nc1ccc2nccnc2c1Br and write its reported pIC50.
< 3.52

Read the entry CCc1ccc(OCc2ccccc2C(=O)Nc2ccc3nc(C)cnc3c2)cc1 and write its reported pIC50.
< 3.52

Read the entry COc1cc2oc3ccccc3c2cc1NC(=O)c1ccc2nccnc2c1 and write its reported pIC50.
< 3.52

Read the entry CCc1ccc(OCc2ccccc2NC(=O)c2ccc3nc(-c4ccccc4)c(-c4ccccc4)nc3c2)cc1 and write its reported pIC50.
< 3.52

Read the entry CCc1ccc(OCc2ccccc2C(=O)Nc2ccc3nc(C)c(C)nc3c2)cc1 and write its reported pIC50.
< 3.52

Read the entry Cc1nc2ccc(NC(=O)C34CC5CC(CC(C5)C3)C4)cc2nc1C and write its reported pIC50.
< 3.52

Read the entry O=[N+]([O-])c1ccc(CNc2ccc3nccnc3c2)cc1 and write its reported pIC50.
3.72

Read the entry CCCCCCC(=O)Nc1ccc2nccnc2c1 and write its reported pIC50.
< 3.52

Read the entry Cc1ncc([N+](=O)[O-])n1CCO [METRONIDAZOLE] and write its reported pIC50.
5.24

Read the entry CCc1ccc(OCc2ccccc2NC(=O)c2ccc3nc(C)c(C)nc3c2)cc1 and write its reported pIC50.
< 3.52

Read the entry CCn1c2ccccc2c2cc(NC(=O)c3ccc4nc(-c5ccccc5)c(-c5ccccc5)nc4c3)ccc21 and write its reported pIC50.
< 3.52

Read the entry O=C(Nc1ccc2nccnc2c1Br)c1ccc2ccccc2n1 and write its reported pIC50.
< 3.52

Read the entry CCCCCCCCCCCCCCCC(=O)Nc1ccc2nccnc2c1Br and write its reported pIC50.
< 3.52

Read the entry CCc1ccc(OCc2ccccc2C(=O)Nc2ccc3nc(-c4ccccc4)c(-c4ccccc4)nc3c2)cc1 and write its reported pIC50.
< 3.52

* * *

IC50 values for the molecules below.
tested on: Trichomonas vaginalis; assay: Antiprotozoal activity against Trichomonas vaginalis CMP; format: functional, organism-based

The following molecules have reported results that may help.
{"Compound Smiles": "CCc1ccc(OCc2ccccc2C(=O)Nc2ccc3nccnc3c2)cc1", "IC50": "126 µM"}
{"Compound Smiles": "O=C(Nc1ccc2nccnc2c1Br)c1ccc(C(=O)c2ccccc2)cc1", "IC50": "> 300 µM"}
{"Compound Smiles": "CCc1ccc(OCc2ccccc2NC(=O)c2ccc3nc(C)cnc3c2)cc1", "IC50": "> 300 µM"}
{"Compound Smiles": "c1cnc2cc(NCc3ccc4c(c3)OCO4)ccc2n1", "IC50": "> 300 µM"}

Now for another entry.
Read the entry O=C(Nc1cccc2c1oc1ccccc12)c1ccc2nc(-c3ccccc3)c(-c3ccccc3)nc2c1 and write its reported IC50.
> 300 µM

* * *

MAC values for the compounds below.
system: Trypanosoma brucei brucei; experiment: Antiprotozoal activity against Trypanosoma brucei brucei GVR35; format: functional

The following compounds have reported results that may help.
{"Compound": "c1ccc(CNc2ccc3nccnc3c2)cc1", "System": "Trypanosoma brucei brucei", "MAC": ">300 µM"}
{"Compound": "Nc1nc(N)nc(Nc2ccc([As]3SCC(CO)S3)cc2)n1 (centres undefined) [MELARSOPROL]", "System": "Trypanosoma brucei brucei", "MAC": "0.1 µM"}
{"Compound": "CCc1ccc(OCc2ccccc2C(=O)Nc2ccc3nccnc3c2)cc1", "System": "Trypanosoma brucei brucei", "MAC": "150 µM"}
{"Compound": "COc1cc2oc3ccccc3c2cc1N(C(=O)c1ccc2nc(-c3ccccc3)c(-c3ccccc3)nc2c1)C(=O)c1ccc2nc(-c3ccccc3)c(-c3ccccc3)nc2c1", "System": "Trypanosoma brucei brucei", "MAC": ">300 µM"}
{"Compound": "O=C(Nc1ccc2nccnc2c1Br)c1ccc(C(=O)c2ccccc2)cc1", "System": "Trypanosoma brucei brucei", "MAC": ">300 µM"}
{"Compound": "CCc1ccc(OCc2ccccc2C(=O)Nc2ccc3nc(C)cnc3c2)cc1", "System": "Trypanosoma brucei brucei", "MAC": "200 µM"}
{"Compound": "CCc1ccc(OCc2ccccc2NC(=O)c2ccc3nc(-c4ccccc4)c(-c4ccccc4)nc3c2)cc1", "System": "Trypanosoma brucei brucei", "MAC": ">300 µM"}
{"Compound": "c1cnc2cc(NCc3ccc4c(c3)OCO4)ccc2n1", "System": "Trypanosoma brucei brucei", "MAC": ">300 µM"}
{"Compound": "CCCCCCC(=O)Nc1ccc2nccnc2c1Br", "System": "Trypanosoma brucei brucei", "MAC": ">300 µM"}
{"Compound": "CCc1ccc(OCc2ccccc2NC(=O)c2ccc3nccnc3c2)cc1", "System": "Trypanosoma brucei brucei", "MAC": "200 µM"}

Now for another entry.
Read the entry CCc1ccc(OCc2ccccc2C(=O)Nc2ccc3nc(C)c(C)nc3c2)cc1 and write its reported MAC.
200 µM
